# TEST SYSTEM: T1, 8A
# T1 construct: also called HLA-A2 / point-mutant NY-ESO peptide 8A complex on T2 cells
# ASSAY SUMMARY: flow cytometry on peptide-pulsed T2 cells, scFv 100 nM
READOUT TYPE: standardized gMFI
Format: numeric value only, no unit, no commentary.

standardized gMFI lookup needed for NYA-1163 (scFv) scFv: GEVQLVESGGGVVQPGRSLTPSCSASGFSIRSYDIHWVRLAPGKGLEWVATISYDGSQKYFADSVKGRFTIFRDESENMVYLQMSGLRVEDTAVYHCARGSSGHYEAFDIWGQGTMVTVSSGGGGSGGGGSGGGGSQSVLTQPPSVSAAPGQKVTISCSGSSSNIGNNYVSWYQQLPGTAPKLLIYDNNKRPSGIPDRFSGSKSGTSATLGITGLQTGDEADYYCGTWDSSLSAPWVFGGGTKVTVLGAAAGAGGDYKDDDDKGAAAHHHHHH , thanks. 6
